system: Hepatotoxicity; assay: FDA HLAED, alkaline phosphatase increase; details: human
value_type: Alkaline Phosphatase Increase - Index Value

molecule=COCCCC/C(=N\OCCN)c1ccc(C(F)(F)F)cc1 system_tested=Hepatotoxicity value_observed=2.7
molecule="CC(C)(C(=O)O)c1ccc(C(O)CCCN2CCC(C(O)(c3ccccc3)c3ccccc3)CC2)cc1 (stereo not given) [FEXOFENADINE]" system_tested=Hepatotoxicity value_observed=0
molecule=O=C1CN=C(c2ccccc2)c2cc(Cl)ccc2N1CC1CC1 system_tested=Hepatotoxicity value_observed=0.3
molecule=Oc1ccc2c(c1)[C@@]13CCCC[C@@]1(O)[C@@H](C2)N(CC1CCC1)CC3 system_tested=Hepatotoxicity value_observed=0
molecule=CNC(=C[N+](=O)[O-])NCCSCc1csc(CN(C)C)n1 system_tested=Hepatotoxicity value_observed=1.4
molecule=Nc1cc(Cl)c(N=C2NCCN2)c(Cl)c1 system_tested=Hepatotoxicity value_observed=0
molecule=C[C@@H](CN1CC(=O)NC(=O)C1)N1CC(=O)NC(=O)C1 system_tested=Hepatotoxicity value_observed=0
molecule="O=C(c1ccccc1)c1ccc2n1CCC2C(=O)O (stereo not given)" system_tested=Hepatotoxicity value_observed=1.4
molecule=CC1(C)S[C@@H]2[C@H](NC(=O)[C@H](NC(=O)N3CCN(S(C)(=O)=O)C3=O)c3ccccc3)C(=O)N2[C@H]1C(=O)O system_tested=Hepatotoxicity value_observed=1.9
molecule=CN1CCC[C@H]1c1cccnc1 system_tested=Hepatotoxicity value_observed=0
molecule="O=P1(N(CCCl)CCCl)NCCCO1 (stereo not given) [CYCLOPHOSPHAMIDE ANHYDROUS]" system_tested=Hepatotoxicity value_observed=4.6
molecule="O=C(NCC(O)CO)c1c(I)c(C(=O)NCC(O)CO)c(I)c(N(CCO)C(=O)CO)c1I (stereo not given)" system_tested=Hepatotoxicity value_observed=0
molecule="CO/N=C(/C(=O)N[C@@H]1C(=O)N2C(C(=O)OC(C)OC(=O)C(C)(C)OC)=C(COC(N)=O)CS[C@H]12)c1ccco1 (stereo not given in full)" system_tested=Hepatotoxicity value_observed=0
molecule="CC(C)C(=O)Nc1ccc([N+](=O)[O-])c(C(F)(F)F)c1 [FLUTAMIDE]" system_tested=Hepatotoxicity value_observed=16.8
molecule=Fc1ccccc1C1=NCC(=S)N(CC(F)(F)F)c2ccc(Cl)cc21 system_tested=Hepatotoxicity value_observed=0
molecule="COc1cc(NCc2ccc3nc(N)nc(N)c3c2C)cc(OC)c1OC [TRIMETREXATE]" system_tested=Hepatotoxicity value_observed=38.8
molecule=CO[C@@]1(NC(=O)Cc2cccs2)C(=O)N2C(C(=O)O)=C(COC(N)=O)CS[C@@H]21 system_tested=Hepatotoxicity value_observed=0
molecule="COC(=O)C1=C(C)NC(C)=C(C(=O)OCCN(C)Cc2ccccc2)C1c1cccc([N+](=O)[O-])c1 (stereo not given)" system_tested=Hepatotoxicity value_observed=2
molecule=FCOC(C(F)(F)F)C(F)(F)F system_tested=Hepatotoxicity value_observed=3.1
molecule=CCn1cc(C(=O)O)c(=O)c2cc(F)c(N3CCNCC3)cc21 system_tested=Hepatotoxicity value_observed=6.3
molecule=C[C@H]1C[C@H]2[C@@H]3C[C@H](F)C4=CC(=O)C=C[C@]4(C)[C@@]3(F)[C@@H](O)C[C@]2(C)[C@@]1(O)C(=O)CCl system_tested=Hepatotoxicity value_observed=0
molecule="CCOC(=O)CCC(=O)O[C@H]1[C@H](O[C@@H]2[C@@H](C)[C@H](O[C@H]3C[C@@](C)(OC)[C@@H](O)[C@H](C)O3)[C@@H](C)C(=O)O[C@H](CC)[C@@](C)(O)[C@H](O)[C@@H](C)C(=O)[C@H](C)C[C@@]2(C)O)O[C@H](C)C[C@@H]1N(C)C [ERYTHROMYCIN ETHYLSUCCINATE]" system_tested=Hepatotoxicity value_observed=7.3
molecule=C[C@]12CC[C@@H]3c4ccc(OC(=O)N(CCCl)CCCl)cc4CC[C@H]3[C@@H]1CC[C@@H]2O system_tested=Hepatotoxicity value_observed=43.7
molecule=Brc1c(NC2=NCCN2)ccc2nccnc12 system_tested=Hepatotoxicity value_observed=0
molecule="CNCCC(Oc1ccc(C(F)(F)F)cc1)c1ccccc1 (stereo not given)" system_tested=Hepatotoxicity value_observed=4.7
molecule="CCCCCCCCCCCCCCCCCC(=O)O.CC[C@H]1OC(=O)[C@H](C)[C@@H](O[C@H]2C[C@@](C)(OC)[C@@H](O)[C@H](C)O2)[C@H](C)[C@@H](O[C@@H]2O[C@H](C)C[C@H](N(C)C)[C@H]2OC(C)=O)[C@](C)(O)C[C@@H](C)C(=O)[C@H](C)[C@@H](O)[C@]1(C)O [ERYTHROMYCIN ACISTRATE]" system_tested=Hepatotoxicity value_observed=7.3
molecule="CC(C)(C)NC(=O)[C@H]1CC[C@H]2[C@@H]3CC[C@H]4NC(=O)C=C[C@]4(C)[C@H]3CC[C@]12C [FINASTERIDE]" system_tested=Hepatotoxicity value_observed=2.5
molecule="CC[N+](C)(C)Cc1ccccc1Br.Cc1ccc(S(=O)(=O)[O-])cc1 [BRETYLIUM TOSYLATE]" system_tested=Hepatotoxicity value_observed=0
molecule=CC(C)(C)NC(=O)[C@@H]1C[C@@H]2CCCC[C@@H]2CN1C[C@@H](O)[C@H](Cc1ccccc1)NC(=O)[C@H](CC(N)=O)NC(=O)c1ccc2ccccc2n1 system_tested=Hepatotoxicity value_observed=0
molecule=CC1(C)S[C@@H]2[C@H](NC(=O)[C@H](N)c3ccc(O)cc3)C(=O)N2[C@H]1C(=O)O system_tested=Hepatotoxicity value_observed=0
